Provenance of the data: ChEMBL document CHEMBL3596163

assay: Lipophilicity, log D of the compound at pH 7.4; type: physicochemical; conditions: buffer
# cutoff 0.8 applies to logD; >= gives MET, < gives NOT MET

# molecule, class_name
measured = [
    ("O=C(O)c1ccc(-c2nc(C(=O)c3c(Cl)cccc3C3CC3)n3c2CCCC3)c(F)c1", "MET"),
    ("O=C(c1c(Cl)cccc1C(F)(F)F)c1nc(N2CC[C@H](C(=O)O)[C@@H](O)C2)c2ccccn12 (stereo in doubt)", "NOT MET"),
    ("O=C(c1c(Cl)cccc1C(F)(F)F)c1nc(N2CC[C@@H](C(=O)O)[C@H](O)C2)c2ccccn12 (stereo in doubt)", "NOT MET"),
    ("O=C(O)c1ccc(-n2nc(C(=O)c3c(Cl)cccc3C(F)(F)F)c3c2CCCC3)cc1", "NOT MET"),
    ("O=C(O)c1ccc(-c2nc(C(=O)c3c(Cl)cccc3C(F)(F)F)n3ccccc23)cc1", "MET"),
    ("O=C(O)c1ccc(-c2nc(C(=O)c3c(Cl)cccc3C(F)(F)F)n3ccncc23)cc1", "NOT MET"),
    ("O=C(O)c1ccc(-c2nc(C(=O)c3c(Cl)cccc3Cl)n3c2CCCC3)c(F)c1", "MET"),
    ("O=C(O)c1ccc(-c2nc(C(=O)c3c(Cl)cccc3C3CC3)n3cccnc23)cc1O", "MET"),
    ("O=C(c1c(Cl)cccc1C(F)(F)F)c1nc([C@H]2CC[C@@H](C(=O)O)CC2)c2ccccn12", "MET"),
    ("O=C(O)c1ccc(-c2nc(C(=O)c3c(Cl)cccc3C(F)(F)F)n3c2CCCC3)c(F)c1", "MET"),
    ("N#Cc1cccc(C(F)(F)F)c1C(=O)c1nc(-c2ccc(C(=O)O)cc2F)c2n1CCCC2", "NOT MET"),
    ("O=C(O)c1ccc(-c2nc(C(=O)c3c(Cl)cccc3C(F)(F)F)n3ccccc23)c(F)c1", "MET"),
    ("O=C(O)c1ccc(-c2nc(C(=O)c3c(Cl)cccc3C(F)(F)F)n3ccccc23)cc1O", "MET"),
    ("O=C(O)c1ccc(-c2nc(C(=O)c3c(F)cccc3Cl)n3c2CCCC3)c(F)c1", "MET"),
    ("O=C(O)c1ccc(-c2nc(C(=O)c3ccccc3C(F)(F)F)n3c2CCCC3)c(F)c1", "MET"),
    ("O=C(O)c1ccc(-c2nc(C(=O)c3c(Cl)cccc3C(F)(F)F)n3cccnc23)cc1", "NOT MET"),
]

====

assay: Plasma protein binding in rat at 5 uM after 4 hrs by equilibrium dialysis method; format: ADME, cell-free; conditions: read-out: PPB

# compound_smiles, censoring_sign, fraction unbound at 4 h, 5 µM
data = [
    ("O=C(O)c1ccc(-c2nc(C(=O)c3c(Cl)cccc3C3CC3)n3cccnc23)cc1O", "=", 0.01),
    ("O=C(O)c1ccc(-c2nc(C(=O)c3c(Cl)cccc3C(F)(F)F)n3ccccc23)cc1O", "<", 0.01),
]

====

molecular target: Nuclear receptor ROR-gamma (Homo sapiens, UniProt P51449); test: Inverse agonist activity at GAL4-fused human RORc expressed in HEK293T cells assessed as suppression of basal transcriptional activity after 20 hrs by dual-glo luciferase reporter gene assay; format: functional, cell-based, HEK-293T
Sequence (P51449 whole entry, the tested form may be a part): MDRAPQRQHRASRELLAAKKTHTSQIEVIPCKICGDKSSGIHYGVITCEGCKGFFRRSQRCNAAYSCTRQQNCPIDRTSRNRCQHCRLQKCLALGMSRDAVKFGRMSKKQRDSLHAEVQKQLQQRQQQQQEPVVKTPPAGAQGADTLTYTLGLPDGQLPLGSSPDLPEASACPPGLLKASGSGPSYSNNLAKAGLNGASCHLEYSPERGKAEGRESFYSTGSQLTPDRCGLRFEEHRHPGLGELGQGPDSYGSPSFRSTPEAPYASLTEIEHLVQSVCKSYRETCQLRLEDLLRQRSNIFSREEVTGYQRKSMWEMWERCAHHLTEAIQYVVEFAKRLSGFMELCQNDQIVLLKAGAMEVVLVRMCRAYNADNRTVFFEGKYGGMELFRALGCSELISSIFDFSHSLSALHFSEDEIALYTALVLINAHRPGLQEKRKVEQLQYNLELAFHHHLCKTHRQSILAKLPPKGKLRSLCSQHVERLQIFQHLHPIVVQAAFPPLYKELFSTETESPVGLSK
pEC50: −log10 of the molar value.
# cutoff 8 applies to pEC50; >= gives y, < gives n

# compound_smiles, class_name
rows = [
    ("O=C(O)c1ccc(-c2nc(C(=O)c3c(Cl)cccc3C(F)(F)F)n3ccccc23)cc1O", "y"),
    ("O=C(O)c1ccc(-c2nc(C(=O)c3c(Cl)cccc3C(F)(F)F)n3c2CCCC3)c(F)c1", "n"),
    ("O=C(O)c1ccc(-c2nc(C(=O)c3c(Cl)cccc3C3CC3)n3c2CCCC3)c(F)c1", "n"),
]
